Entries with their measured IC10, linear, system HEK293T (ERα):
Readout: IC10, linear

[
  {
    "Molecule": "CC(C)CC(C)(c1ccc(O)cc1)c1ccc(O)cc1 [BP-MIBK, 4,4'-(1,3-Dimethylbutylidene)diphenol]",
    "Recorded result": "no cytotoxicity"
  },
  {
    "Molecule": "CC(C)(c1ccc(O)cc1)c1ccc(O)cc1 [BPA, 4,4'-(Propane-2,2-diyl)diphenol, reference compound]",
    "Recorded result": "no cytotoxicity"
  },
  {
    "Molecule": "CC(C)(c1cc(Br)c(O)c(Br)c1)c1cc(Br)c(O)c(Br)c1 [TBBPA, 3,3',5,5'-Tetrabromobisphenol A]",
    "Recorded result": "no cytotoxicity"
  },
  {
    "Molecule": "CC(C)Oc1ccc(S(=O)(=O)c2ccc(O)cc2)cc1 [D8, 4-((4-Isopropoxyphenyl)sulfonyl)phenol]",
    "Recorded result": "no cytotoxicity"
  }
]
